Data provenance is the supplement of paper PMC10126150.

# System: ATP;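 note: ATP exposure 15 min at 22 °C before imaging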
# run_description: switch fluorescence ratio, 500 uM ATP over buffer (Cy3 cluster intensity, sum of 5 cycles each) (fold (ratio)); higher = stronger signal-on switching upon ATP binding; sequences stand for … in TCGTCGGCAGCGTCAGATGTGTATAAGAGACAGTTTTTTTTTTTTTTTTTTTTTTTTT…TC
# reported_conditions: aptamer strand: ATP DNA aptamer (quencher-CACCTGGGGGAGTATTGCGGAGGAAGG + anchor), 100 nM annealed; ATP concentration: 500 uM
Below, each entry is listed alongside its reported switch fluorescence ratio.

| biopolymer_sequence | switch fluorescence ratio |
| --- | --- |
| ATTTGCATGC | 1 |
| GAGGATATGG | 0.98 |
| TCAACCCTTA | 1.03 |
| GCAGTTAATC | 1.05 |
| TACAGGGAGT | 1.06 |
| GATATGGATG | 0.96 |
| GGTATGTACG | 1.03 |
| TTTCCCGAGG | 1.51 |
| TATATGTTTT | 0.968 |
| CGGGGATTCG | 0.996 |
| TCGTCGCAGG | 1.1 |
| GCCCCGGGGA | 1.04 |
| GGACAAGCGT | 0.987 |
| GGGTTAAGCA | 0.996 |
| AACGGGTGCA | 0.99 |
| GGGAAAGTTT | 0.996 |
| TTTTAAGCTG | 1.05 |
| TTATCTACGT | 1.07 |
| ATTGGGATGC | 1.04 |
| TGCTGTTGGA | 0.953 |
| TGGTTTTAAG | 0.98 |
| TGGGTCTAGG | 0.99 |
| TTTTTGGGGC | 1.03 |
| AGACCATAGA | 1.02 |
| CGGGCAGATG | 0.983 |
| AAGCGTGGGA | 1.02 |
| TTTTGGCGTC | 0.994 |
| TTATGGACCT | 1.33 |
| CCTCTGGCGC | 3.9 |
| CCATTATTTT | 1 |
| ATATGTGCCA | 0.98 |
| AGTCCGGGGT | 1.04 |
| AGGGGGGCTA | 0.991 |
| CGTGGATACT | 1.23 |
| GTGGACAACG | 0.992 |
| CATAGGTTCT | 0.986 |
| CGAGGTAGTT | 0.975 |
| CCTGTATTTT | 1.01 |
| AGGATTTGGT | 0.984 |
| AAGCAGTAGC | 1.05 |
